System: SN12C
Assay protocol: NCI tumour cell line growth inhibition, 48 h
Calls of active or inactive are those of the source. Cut-off read from the data, not from the text of the source: active = GI50 up to about 1.1 µM and inactive = higher.
Endpoint label: GI50

>  <Compound>
O=C(O)CSc1nnc(-c2ccc(O)cc2)[nH]1

>  <Result>
> 10 µM (inactive)

$$$$
>  <Compound>
COc1ccc(-c2nc(N)c(C#N)c3c2CCS(=O)(=O)c2ccc(C)cc2-3)cc1OC

>  <Result>
50.2 µM (inactive)

$$$$
>  <Compound>
COC(=O)c1nc(N)nc(O)c1-c1ccc(Cl)cc1

>  <Result>
> 100 µM (inactive)

$$$$
>  <Compound>
CCCC(=O)N(C)/N=N/c1ccc(C(=O)OCC)cc1

>  <Result>
> 100 µM (inactive)

$$$$
>  <Compound>
CC[C@]1(Cc2ccc(OC)c(OC)c2)[C@@H]2C[C@@H](C(=O)OC)ON2O[C@H](OC2CCCC2(c2ccccc2)c2ccccc2)[C@@H]1OC(C)=O (stereo not given in full)

>  <Result>
> 100 µM (inactive)

$$$$
>  <Compound>
O=P(c1ccccc1)(c1ccccc1)C1CC=C2CCCCCC2C1 (stereo not given)

>  <Result>
30.6 µM (inactive)

$$$$
>  <Compound>
O=[N+]([O-])c1ccc2nc(/C(=N/Nc3ccccc3)C(O)c3ccc(C(O)/C(=N\Nc4ccccc4)c4nc5ccc([N+](=O)[O-])cc5nc4O)cc3)cnc2c1 (stereo not given)

>  <Result>
44.1 µM (inactive)

$$$$
>  <Compound>
CC(C)(CC(O)C#N)/[N+]([O-])=[N+](\[O-])C(C)(C)CC(O)C#N (stereo not given)

>  <Result>
19.3 µM (inactive)

$$$$
>  <Compound>
COC(=O)C(C(=O)c1ccccc1)C(C(=O)C(=O)Nc1ccc(OC)cc1OC)C(=O)C(=O)c1ccc(C)cc1 (stereo not given)

>  <Result>
> 100 µM (inactive)

$$$$
>  <Compound>
CCOC(=O)c1cn(-c2ccc(Cl)cc2)c(=O)n2c1nc1ccccc12

>  <Result>
> 100 µM (inactive)

$$$$
>  <Compound>
CC(=O)c1nc(C#N)c(N)o1

>  <Result>
> 100 µM (inactive)

$$$$
>  <Compound>
C=CCCCC12CCCc3cccc(c31)NC2=O (stereo not given)

>  <Result>
32.4 µM (inactive)

$$$$
>  <Compound>
COc1ccc(C2=Nn3c(nc4sc5c(c4c3=O)CCCC5)SC2)cc1

>  <Result>
> 100 µM (inactive)

$$$$
>  <Compound>
COc1ccc(CCNC(=S)NC=C2C(=O)c3ccccc3C2=O)cc1OC

>  <Result>
> 100 µM (inactive)

$$$$
>  <Compound>
O=C(O)C1=CN(c2ccncc2)C(c2ccco2)=CC1c1ccccc1[N+](=O)[O-] (stereo not given)

>  <Result>
13.6 µM (inactive)

$$$$
>  <Compound>
COC(=O)CCc1ccc2c(c1)CC1(C2)Cc2ccc(CCC(=O)OC)cc2C1

>  <Result>
68.5 µM (inactive)

$$$$
>  <Compound>
CC1CC2C(=O)N(c3ccccc3)C(=O)C2c2c1c1ccccc1n2Cc1ccccc1 (stereo not given)

>  <Result>
> 100 µM (inactive)

$$$$
>  <Compound>
CCC(=O)Nc1nc2c(ncn2C2OC(COC(=O)CC)C(OC(=O)CC)C2OC(=O)CC)c(=O)[nH]1 (stereo not given)

>  <Result>
> 100 µM (inactive)

$$$$
>  <Compound>
O=c1oc2ccccc2cc1-c1nc2ccc([N+](=O)[O-])cc2o1

>  <Result>
> 100 µM (inactive)

$$$$
>  <Compound>
N#CC12CC=C(c3ccccc3)N=C1NC(c1ccccc1)=CC2 (stereo not given)

>  <Result>
> 100 µM (inactive)

$$$$
>  <Compound>
CN(CC(=O)O)c1ncc2c(n1)-c1ccccc1CC2

>  <Result>
> 100 µM (inactive)

$$$$
>  <Compound>
O=[N+]([O-])c1ccc(N2C[N+](c3ccccc3)=NC(c3ccccc3)=N2)cc1

>  <Result>
46.3 µM (inactive)

$$$$
>  <Compound>
Cc1c2c(n(CCc3ccccc3)c1C)NN=C(C#N)S2(=O)=O

>  <Result>
> 100 µM (inactive)

$$$$
>  <Compound>
O=C(c1ccccc1)c1cc[n+](C2=C([N-]S(=O)(=O)c3ccccc3)C(=O)c3ccccc3C2=O)cc1

>  <Result>
6.85 µM (inactive)

$$$$
>  <Compound>
Cc1cc([N+](=O)[O-])ccc1Sc1c2ccccc2nc2cc(Cl)ccc12

>  <Result>
30.8 µM (inactive)

$$$$
>  <Compound>
Cn1nc2ccc([N+](=O)[O-])cc2[n+]1[O-]

>  <Result>
22.4 µM (inactive)

$$$$
>  <Compound>
O=c1[nH]cc(COCCCO)c(=O)[nH]1

>  <Result>
> 100 µM (inactive)

$$$$
>  <Compound>
O=c1c2cc3ccccc3n2c(=O)c2cc3ccccc3n12

>  <Result>
> 100 µM (inactive)

$$$$
>  <Compound>
CN(C)CCC(/C=C/c1ccccc1)=N\Nc1ccc(Cl)cc1Cl

>  <Result>
11.1 µM (inactive)

$$$$
>  <Compound>
C[C@@]1(O)CC[C@]2(C)C3CCCC3[C@H]12 (stereo not given in full)

>  <Result>
> 100 µM (inactive)

$$$$
>  <Compound>
Cc1nn2c3c(nnc2c1C#N)C(=O)NN=C(N)S3

>  <Result>
> 100 µM (inactive)

$$$$
>  <Compound>
CC(C)=NN/C(=N\c1ccc(Cl)cc1)NS(=O)(=O)c1ccc(Oc2cccc(Cl)c2C#N)cc1

>  <Result>
> 100 µM (inactive)

$$$$
>  <Compound>
C/C(CCOC1CCCCO1)=C(\C)[Si](C)(C)C (stereo not given)

>  <Result>
> 100 µM (inactive)

$$$$
>  <Compound>
Cc1ccsc1C(=S)Nc1ccc(Cl)c(C(=O)OC(C(C)C)C(C)C)c1

>  <Result>
24.8 µM (inactive)

$$$$
>  <Compound>
CN(NC1=NCCO1)c1ccc2ccccc2c1

>  <Result>
62.8 µM (inactive)

$$$$
